Test System: Lysine-specific demethylase 4E (Homo sapiens) (UniProt B2RXH2); note: nearly all actives have a fitted effect of over 50% in size
Test Details: qHTS Assay for Inhibitors of Human Jumonji Domain Containing 2E (JMJD2E)
Condition Parameters: JMJD2E catalytic domain, FDH-coupled NADH fluorescence; series mostly up to 57.1 µM
The campaign covered roughly 230,000 compounds. About 3,600 (1.6%) were called active. Not shown: some 15% with an inconclusive outcome. Calls come from the whole dose curve; as a rule, active = well fitted inhibition curve with a large enough effect (not every such curve was filed as active); inconclusive = small, poorly fitted or top-dose-only effect, or another doubt; inactive = no such curve, though single readings can be large or run the other way. The sample holds actives, similar compounds and a random draw of the others, so the mix is not that of the screen.
Permitted responses: y for active, n for inactive

Observe how each entry below is paired with its result.
COCCN1C=C2C(=O)C(C)(OC(=O)C3CCCC3)C(=O)C=C2C=C1c1ccsc1 (centres undefined) | y
Cc1ccnc(SCC(N)=O)n1 | n

Just curious, what result did "Cc1ccnc(Nc2nc3ccccc3s2)n1" get here?
n

Now this one: "CCc1ccc[n+](-c2nc([O-])sc2C=O)c1"
n

Try "CC(C)C[C@@H](CC(=O)N[C@@H](CCC(=O)O)CC(=O)O)NC(=O)[C@@H]1CCCC[C@H]1NC(=O)C[C@@H](NC(=O)C[C@H](Cc1c[nH]c2ccccc12)NC(=O)[C@@H]1CCCC[C@H]1N)C(C)C" next.
y

And "O=c1c2ccccc2c(-c2ccccc2)nn1Cc1ccccc1" ?
n

Also, "CSc1c(SCc2ccccc2)cnn(Cc2ccccc2)c1=O" please.
y

Same question, CC1(OC(=O)C2CCCC2)C(=O)C=C2C=C(c3ccc(C#N)cc3)OC=C2C1=O (centres undefined) this time
n

Same question, "CC(C)C[C@@H](CC(=O)N[C@@H](CCC(=O)O)CC(=O)O)NC(=O)[C@@H]1CCCC[C@H]1NC(=O)C[C@@H](NC(=O)C[C@H](CO)NC(=O)[C@@H]1CCCC[C@H]1N)C(C)C" this time
n

====

Test System: Lysine-specific demethylase 4E (Homo sapiens) (UniProt B2RXH2); note: nearly all actives have a fitted effect of over 50% in size; note: potency is the fitted concentration of half-maximal effect
Test Details: qHTS Assay for Inhibitors of Human Jumonji Domain Containing 2E (JMJD2E)
Condition Parameters: JMJD2E catalytic domain, FDH-coupled NADH fluorescence; series mostly up to 57.1 µM
In all, about 230,000 compounds went through this assay and about 3,600 (1.6%) were called active. Inconclusive results (about 15%) are left out. This is one part of a sample in which actives are shown more often than they occur.
Readout Label: Potency

Here's what some known entries look like.
Cn1c(SCC(=O)Nc2ccc(Cl)cc2)nc(O)cc1=O | inactive
CCCC(=O)N1c2ccc(-c3csc(N)n3)cc2CC1C (stereo unspecified) | inactive
Cc1ccccc1OCC(O)CN1CCN(c2ccccn2)CC1 (stereo unspecified) | inactive
CCOc1ccc(/C=N/NC(=O)CSc2ccccn2)cc1O | inactive
CC(=O)Nc1ccc(NC(=O)CSc2ncnc3c2cnn3Cc2ccccc2)cc1 | inactive

May I ask what Potency has been recorded for "CCc1nc(C)cn1S(=O)(=O)c1cc([N+](=O)[O-])ccc1Cl" ?
inactive

Moving on to the next molecule: "CCOC(=O)N1CCN(C(=O)c2cn(C)c3ccc(S(=O)(=O)N4CCCC4)cc3c2=O)CC1"
inactive

Please give the result for "Cc1nc2ccccc2n1CC(=O)N/N=C/c1cccnc1" too.
inactive

Could you do the same for "CC(C)(C)C(=O)OCc1nc(-c2ccc(O)c(O)c2)cs1" , please?
12.6 µM (active)

Continue with CC1CC(C)(C)n2c(O)c(N=NC(N)=S)c3cccc1c32 (stereo unspecified)
inactive

Also "CCn1cc(C(=O)NCCCN2CCCCCC2)c(=O)c2cc(S(=O)(=O)N3CCc4ccccc4C3)ccc21" ?
25.1 µM (active)

====

Test System: Lysine-specific demethylase 4E (Homo sapiens); note: nearly all actives have a fitted effect of over 50% in size
Test Details: qHTS Assay for Inhibitors of Human Jumonji Domain Containing 2E (JMJD2E)
Condition Parameters: JMJD2E catalytic domain, FDH-coupled NADH fluorescence; series mostly up to 57.1 µM
Out of some 230,000 compounds screened, about 3,600 (1.6%) were called active. Roughly 15% stayed inconclusive and do not appear here. Calls follow the shape of the dose curve; as a rule, active = well fitted inhibition curve with a large enough effect (not every such curve was filed as active); inconclusive = small, poorly fitted or top-dose-only effect, or another doubt; inactive = no such curve, though single readings can be large or run the other way. This is one part of a sample in which actives are shown more often than they occur.
Result category, one only: class 1 for active, class 0 for inactive

S=C(NCCc1ccccc1)N1CCCCC1 | class 0
Oc1c(C(c2ccccn2)N2CCOCC2)ccc2cccnc12 (configuration not stated) | class 0
COC(=O)C1=C(N)Oc2cc(C)[nH]c(=O)c2C1c1ccc(Cl)cc1 (configuration not stated) | class 0
Cc1ccc(/C=N/NC(=S)Nc2cccc(S(=O)(=O)N(C)C)c2)o1 | class 0
O=C(C[n+]1ccc2c(c1)nnn2-c1ccccc1)c1ccc(Cl)cc1 | class 0

Hi team, can someone confirm the assay call for "Oc1cc2c(cc1O)CN(C(=S)NCCc1ccc(Cl)cc1)CCC2" ?
class 1

What would you report for "COc1ccc(Cc2nnc(N/N=C/c3ccccc3O)[nH]c2=O)cc1OC" ?
class 1

Next molecule up: "CCN(CC)c1ccc(/C=N/NC(=O)c2cnccn2)c(O)c1"
class 1

And for "Nc1nc(Sc2ncccc2[N+](=O)[O-])n[nH]1" ?
class 0

Next: "O=C(O)CCCCCCCCCC[n+]1ccccc1"
class 0

Now consider "COc1ccccc1NC(=S)N1CCN(C(c2ccccc2)c2ccccc2)CC1" .
class 0

Please give the result for "COc1ccc(Cc2nnc(SC)[nH]c2=O)cc1" too.
class 0

====

Test System: Lysine-specific demethylase 4E (Homo sapiens); note: nearly all actives have a fitted effect of over 50% in size
Test Details: qHTS Assay for Inhibitors of Human Jumonji Domain Containing 2E (JMJD2E)
Condition Parameters: JMJD2E catalytic domain, FDH-coupled NADH fluorescence; series mostly up to 57.1 µM
Hit rate of the full screen: of about 230,000 compounds, about 3,600 (1.6%) were called active. About 15% were inconclusive and are not listed. Calls follow the shape of the dose curve; as a rule, active = well fitted inhibition curve with a large enough effect (not every such curve was filed as active); inconclusive = small, poorly fitted or top-dose-only effect, or another doubt; inactive = no such curve, though single readings can be large or run the other way. The sample as a whole holds a higher share of actives than the screen did.
Please reply with one of these outcomes: 1.0 (active), 0.0 (inactive)

Check the results log: what was the call for Oc1cc(O)c2c(c1)OC(c1ccc(O)c(O)c1)C(O)C2 (stereo not drawn) ?
1.0

One more compound: "O=C(CNc1ccc(F)cc1F)NC(=O)NCc1ccco1"
0.0

Same for "Cc1ccccc1Nc1nnc(C)c(=O)[nH]1"
0.0

What do you get for "CS(=O)(=O)c1ccc(Cl)c(NC(=O)Nc2ccccc2)c1" ?
0.0

Record: "O=C(NCc1ccccc1)c1ccc(S(=O)(=O)Nc2cccc(C(F)(F)F)c2)cc1"
0.0

====

Test System: Lysine-specific demethylase 4E (Homo sapiens); note: nearly all actives have a fitted effect of over 50% in size
Test Details: qHTS Assay for Inhibitors of Human Jumonji Domain Containing 2E (JMJD2E)
Condition Parameters: JMJD2E catalytic domain, FDH-coupled NADH fluorescence; series mostly up to 57.1 µM
Screen size: about 230,000 compounds; about 3,600 (1.6%) were called active. Not shown: some 15% with an inconclusive outcome. The call rests on the fitted dose curve; in most records, active means well fitted inhibition curve with a large enough effect (not every such curve was filed as active); inconclusive means small, poorly fitted or top-dose-only effect, or another doubt; inactive means no such curve, though single readings can be large or run the other way. The entries come from a sample that favours actives as a whole.
Can you answer with just one of these options? active, inactive

Answered examples (5):
O=C(COc1ccc([N+](=O)[O-])cc1Cl)Nn1cnnc1 | inactive
c1ccc(CSc2nnc(-c3ccco3)c(-c3ccco3)n2)cc1 | active
c1ccc(CSc2nnc(-c3ccco3)n2Cc2ccccc2)cc1 | inactive
COc1ccc(C2C(C#N)=C(N)Oc3cc(N)ccc32)cc1OC (stereo unspecified) | active
Brc1ccc(CSc2ccc(-c3ccco3)nn2)cc1 | inactive

// outcome(item) with item = "O=C(Nc1ccccc1)N1CCN(C2c3ccccc3-c3ccccc32)CC1"
inactive

Cool, now CCOC(=O)c1ccc(N=C2SC(C(=O)NC)CC(=O)N2CCc2ccccc2)cc1 (stereo unspecified)
inactive

Could you do the same for "O=C(NCc1ccco1)O[C@@H]1C(=O)c2cc(Br)ccc2O[C@H]1c1ccc2c(c1)OCO2" , please?
inactive

====

Test System: Lysine-specific demethylase 4E (Homo sapiens); note: nearly all actives have a fitted effect of over 50% in size
Test Details: qHTS Assay for Inhibitors of Human Jumonji Domain Containing 2E (JMJD2E)
Condition Parameters: JMJD2E catalytic domain, FDH-coupled NADH fluorescence (FDH is formaldehyde dehydrogenase); series mostly up to 57.1 µM
Out of some 230,000 compounds screened, about 3,600 (1.6%) were called active. Roughly 15% stayed inconclusive and do not appear here. Calls come from the whole dose curve; as a rule, active = well fitted inhibition curve with a large enough effect (not every such curve was filed as active); inconclusive = small, poorly fitted or top-dose-only effect, or another doubt; inactive = no such curve, though single readings can be large or run the other way. What follows is part of a selection rich in actives, with near analogues and random picks from the rest.
Your answer must be one of the following: YES (active), NO (inactive)

Would you please look over these solved cases?
Cc1ccc(-c2nc(-c3cccnc3)sc2CC(=O)Nc2ccc(C)c(Cl)c2)cc1 | YES
Cc1ccc(C(C[N+](=O)[O-])c2c(C)cc3ccccn23)cc1 (stereo not given) | YES
O=C(NCCOCc1ccc(Cl)cc1)c1ncn[nH]1 | NO
O=C(Nc1n[nH]c(C(F)(F)F)n1)c1cccs1 | NO
CCOC(=O)N1CCN(C(c2cccnc2)c2ccc3cccnc3c2O)CC1 (stereo not given) | YES

Could you kindly confirm the outcome this assay logged for COc1cc(C2C(C#N)=C(C)NC3=C2C(=O)CC(C)(C)C3)ccc1O (stereo not given) ?
YES

Next record, please: COc1ccc(C2C(C#N)=C(/N=C/N3CCOCC3)OC3=C2C(=O)CC(C)(C)C3)cc1OC (stereo not given)
NO

And "Cc1ccc(NC(=O)COc2ccc(-n3ccnc3)cc2)cc1Cl" ?
NO

Note, next up: "CCOC(=O)N1CCN(C(=O)CSc2ccc(Cl)cc2)CC1"
NO

Follow-up item: "CC(=O)Nc1ccc(/C=N/Nc2ccc(C(=O)c3c(C)cc4ccccn34)cc2[N+](=O)[O-])cc1"
NO
